Measured IC50 values are reported for all entries that follow.
System: Gli1
Test: Gli1-Luciferase Reporter Assay (Shh Light 2 cells)
Format: cell-based, mouse
Settings: Shh Light 2 cell line, Purmorphamine-induced, 24 hours; read-out: Luciferase cell based IC50
measured attribute: IC50 (nM)

[[record]]
compound = "COc1cccc2c1CN(C1CCc3nn(-c4ccccc4Cl)c(C)c3C1)C2 (centres unmarked) [Glx-088P3]"
assayed_system = "Gli1"
measured_attribute = "IC50"
uom = "nM"
assay_value = 0.18

[[record]]
compound = "COc1cccc2c1CN(C1CCc3nn(-c4ccccc4Cl)c(C)c3C1)C2 (centres unmarked) [Glx-088RS]"
assayed_system = "Gli1"
measured_attribute = "IC50"
uom = "nM"
assay_value = 7.1


The measured values listed here are drawn from patent US20230242511A1.
